Target: Mannose-6-phosphate isomerase (Homo sapiens)
Experiment: MPI inhibition at elevated mannose 6-phosphate – biochemical, fluorescence intensity, high mannose 6-phosphate, primary screen (AID 1220)
Details: recombinant PMI enzyme, coupled fluorescence intensity; at 20 µM; active compounds read high
The campaign covered roughly 190,000 compounds. About 1,300 (0.68%) were called active. This is one part of a sample in which actives are shown more often than they occur.
Each entry below carries its recorded inhibition.

CCN(c1cccc(C)c1)C(C(=O)Nc1ccc(OC)cc1)c1cc2c(cc1[N+](=O)[O-])OCO2 (stereo not given): 54.3% (active)
COc1ccc(NC(=O)C(c2cc3c(cc2[N+](=O)[O-])OCO3)N(C)C)cc1 (stereo not given): 55.6% (active)
CSc1nc(O)c(C2OC(=O)c3ccccc32)c(=O)[nH]1 (stereo not given): 8.9% (inactive)
Cc1c(C(=O)OCC(=O)Nc2ccc3c(c2)OCO3)cccc1[N+](=O)[O-]: 16.9% (inactive)
COc1ccc(NC(=O)CN2CCN(CC(=O)Nc3ccc4c(c3)OCO4)CC2)cc1: 0.8% (inactive)
CC(=O)N1CCN(C(=S)c2cccc([N+](=O)[O-])c2)CC1: -0.6% (inactive)
O=C(Cc1ccccc1[N+](=O)[O-])Nc1ccc2c(c1)OCO2: 0% (inactive)
COc1ccc(NC(=O)/C=C/c2ccc3c(c2)OCO3)cc1: 8.9% (inactive)
COc1ccc(C(C(=O)Nc2ccc3c(c2)OCO3)N(C)C(=O)Cc2c[nH]c3ccccc23)cc1 (stereo not given): 18.8% (inactive)

Moving on to the next compound.
Request: Name the reported inhibition value associated with the compound COc1ccc(NC(=O)C(c2cc3c(cc2[N+](=O)[O-])OCO3)N2CCN(C=O)CC2)cc1 (stereo not given)
Response: 65.9% (active)

====

Biological target: Mannose-6-phosphate isomerase (Homo sapiens) (UniProt P34949)
Sequence (P34949 whole entry, looked up): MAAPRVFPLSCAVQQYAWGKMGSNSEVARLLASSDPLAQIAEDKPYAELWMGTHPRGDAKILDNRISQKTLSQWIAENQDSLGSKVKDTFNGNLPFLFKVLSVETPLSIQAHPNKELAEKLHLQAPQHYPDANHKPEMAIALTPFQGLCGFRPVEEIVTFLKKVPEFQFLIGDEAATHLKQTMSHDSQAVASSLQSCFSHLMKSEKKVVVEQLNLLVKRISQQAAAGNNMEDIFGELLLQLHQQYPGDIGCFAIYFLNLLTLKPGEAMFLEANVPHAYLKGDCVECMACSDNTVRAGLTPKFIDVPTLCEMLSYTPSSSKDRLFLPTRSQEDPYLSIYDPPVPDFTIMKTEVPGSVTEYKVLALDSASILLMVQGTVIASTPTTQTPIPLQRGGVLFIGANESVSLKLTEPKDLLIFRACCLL
Experiment: MPI inhibition at elevated mannose 6-phosphate – biochemical, fluorescence intensity, high mannose 6-phosphate, primary screen (AID 1220)
Details: recombinant PMI enzyme, coupled fluorescence intensity; at 20 µM; active compounds read high
The whole screen tested about 190,000 compounds, of which about 1,300 (0.68%) were called active. This is one part of a sample in which actives are shown more often than they occur.
measured.quantity: inhibition (%)
Reply with just the number (in %).

Request: Form field: inhibition recorded for "COc1ccc(NC(=O)c2ccccc2NC(=O)CSc2ccccc2)cc1" with Mannose-6-phosphate isomerase (Homo sapiens) (UniProt P34949) (enter value)
Response: 2.1

Request: Form field: inhibition recorded for "COC(=O)COc1ccc(/C=C2/NC(=O)N(CC(=O)OC)C2=O)cc1" with Mannose-6-phosphate isomerase (Homo sapiens) (UniProt P34949) (enter value)
Response: 1.1

Request: GET /values?readout=inhibition&system=Mannose-6-phosphate isomerase (Homo sapiens) (UniProt P34949)&item= "CCOc1cccc(C=Nc2cc(C)cc(C)c2O)c1O"
Response: 7

Request: Which inhibition is reported with Mannose-6-phosphate isomerase (Homo sapiens) (UniProt P34949) for this entry: "CC1CCN(S(=O)(=O)c2cccc(C(=O)NCc3ccco3)c2)CC1" ?
Response: -3.8

Request: Reported inhibition for Mannose-6-phosphate isomerase (Homo sapiens) (UniProt P34949), given "Cc1ccc(N=Cc2sc(O)c3ccccc23)c(C)c1" ?
Response: 2.2

Request: Provide the documented inhibition with Mannose-6-phosphate isomerase (Homo sapiens) (UniProt P34949) as the system for "COC(=O)c1ccc(C(=O)Nc2ccc(C(C)C)cc2N)cc1"
Response: -2.9

Request: // fetch Mannose-6-phosphate isomerase (Homo sapiens) (UniProt P34949) inhibition for Cc1cc2c3c(c1)C1(C(=O)N3C(C)(C)CC2C)C(C#N)=C(N)Oc2cc(O)ccc21 (stereo not drawn)
Response: 18.9

====

Target: Mannose-6-phosphate isomerase (Homo sapiens)
Assay: MPI inhibition at elevated mannose 6-phosphate – biochemical, fluorescence intensity, high mannose 6-phosphate, primary screen (AID 1220)
Settings: recombinant PMI enzyme, coupled fluorescence intensity; at 20 µM
In all, about 190,000 compounds went through this assay and about 1,300 (0.68%) were called active. Cut-off read from the data, not from the text of the source: active = inhibition above about 50%; inactive = the rest. The list comes from a sample in which actives are over-represented; it also holds close analogues and randomly drawn compounds.
// one of true = active, false = inactive, no free text

Before answering, review these 3 worked examples.
Oc1ccc(/C=N/Nc2cc(N3CCCC3)nc(N3CCCC3)n2)cc1: true
COc1cc(/C=N/Nc2nc(N3CCCC3)nc(N3CCCC3)n2)ccc1O: false
Oc1cccc(/C=N/Nc2cc(N3CCCC3)nc(N3CCCC3)n2)c1: true

Request: So what was the verdict on "Oc1ccc(Br)cc1/C=N/Nc1nc(N2CCCCC2)nc(N2CCOCC2)n1" in this test?
Response: false

Request: Name the outcome recorded for "Cc1cccc(N2CCN(C(=S)c3ccc(-c4ccccc4[N+](=O)[O-])o3)CC2)c1" in the assay.
Response: true

====

Biological target: Mannose-6-phosphate isomerase (Homo sapiens) (UniProt P34949)
Assay: MPI inhibition at elevated mannose 6-phosphate – biochemical, fluorescence intensity, high mannose 6-phosphate, primary screen (AID 1220)
Details: recombinant PMI enzyme, coupled fluorescence intensity; at 20 µM; active compounds read high
About 1,300 (0.68%) of roughly 190,000 compounds were called active. The entries come from a sample that favours actives as a whole.
measured.quantity: inhibition (%)
State the answer as a number, implicitly in %.

COc1cc2c(cc1NCc1ccc3c(c1)OCO3)oc1ccccc12: 32.3

Request: GET /values?readout=inhibition&item= "COc1ccc2c(c1)Cc1sc(NC(=O)c3ccco3)nc1-2"
Response: 45.8

Request: Can you look up the measured inhibition of "COc1ccc(C(=O)Nc2nc3c(s2)Cc2cc(OC)ccc2-3)cc1" for me?
Response: 26.8

====

Target: Mannose-6-phosphate isomerase (Homo sapiens) (UniProt P34949)
Assay: MPI inhibition at elevated mannose 6-phosphate – biochemical, fluorescence intensity, high mannose 6-phosphate, primary screen (AID 1220)
Conditions: recombinant PMI enzyme, coupled fluorescence intensity; at 20 µM
About 1,300 (0.68%) of roughly 190,000 compounds were called active. Rule as the data show it: active = inhibition above about 50%; inactive = the rest. The full list was thinned out, with actives kept by preference.
Mark one answer only. Choices: label 1 = active, label 0 = inactive

# example entries with known answers
C=CCn1c(=NC(=O)c2ccc(S(=O)(=O)N3CCc4ccccc4C3)cc2)sc2cc(S(N)(=O)=O)ccc21: label 0
COc1ccccc1C(=O)N/N=C/c1cnc2ccccc2n1: label 0
Cc1nc(N)[nH]c(=O)c1CCC(=O)OCC(C)C: label 0
COc1ccccc1-n1c(=O)c(C#N)c(-c2ccc([N+](=O)[O-])cc2)c2cc(C(=O)c3cc(F)ccc3O)cnc21: label 0
Cc1c(N=Cc2ccc(O)c(Br)c2)cccc1[N+](=O)[O-]: label 0
COc1cccc(NC(=O)c2ccc(NCCCN3CC(C)CC(C)C3)c([N+](=O)[O-])c2)c1 (centres undefined): label 0

Let us examine a further case.
Request: Identify the outcome logged in this assay for the molecule shown: COc1ccc(C(CC(=O)Nc2cc([N+](=O)[O-])ccc2OC)c2ccccc2)cc1 (centres undefined)
Response: label 1

====

Target: Mannose-6-phosphate isomerase (Homo sapiens)
Experiment: MPI inhibition at elevated mannose 6-phosphate – biochemical, fluorescence intensity, high mannose 6-phosphate, primary screen (AID 1220)
Settings: recombinant PMI enzyme, coupled fluorescence intensity; at 20 µM; active compounds read high
Among all 190,000 compounds or so, about 1,300 (0.68%) were called active. The sample as a whole holds a higher share of actives than the screen did.
measured.quantity: inhibition (%)
Report only the number, with the unit % understood.

Here are 3 compounds together with their reported answers.
CC1=CC2(O)OCCN(CCO)C2=CC1=O (stereo not drawn): 57.4
CC(C)N(C(=O)CSc1nnc(CN2CCCCCC2=O)n1-c1ccccn1)C(C)C: -4.7
O=C(O)CCc1c(C(=O)O)[nH]c2ccccc12: -4.7

Request: Recorded inhibition for "Cc1ccc2c(C)[nH]c(=O)cc2c1" , please?
Response: 8.1

Request: Need inhibition of "Nc1cc2c(cc1[N+](=O)[O-])OCCOCCOCCO2" , thanks.
Response: 19.7

Request: inhibition lookup needed for CCOc1ccc(S(=O)(=O)N(CC(=O)NC2CCCCC2C)Cc2ccco2)cc1 (stereo not drawn) , thanks.
Response: 3.3

Request: Quick check: inhibition of "Nc1cc2c(cc1[N+](=O)[O-])OCCO2" ?
Response: 7.1

Request: # query: inhibition of entry "COC(=O)c1ccccc1OCCOc1ccccc1C(=O)OC"
Response: 2.8

Request: Give its inhibition value. Item: "N#C/C(=C\c1cn(CCOc2ccccc2)c2ccccc12)C(=O)NCc1ccco1"
Response: -1.2

Request: Fill blank: measured inhibition of the compound "Cc1ccccc1Cc1ccc(Cl)nn1" is ____.
Response: -8.8

Request: Suppose we examine the compound "Cc1ccsc1/C=N/NC(=O)c1cc(-c2ccncc2)nc2ccccc12" ; what inhibition value has been reported?
Response: -9.2

Hey, just so you know, these numbers are from PubChem BioAssay AID1220.
